Molecular target: opioid receptor mu (Homo sapiens, UniProt P35372)
Construct: expressed in transfected cells
Sequence (P35372 whole entry): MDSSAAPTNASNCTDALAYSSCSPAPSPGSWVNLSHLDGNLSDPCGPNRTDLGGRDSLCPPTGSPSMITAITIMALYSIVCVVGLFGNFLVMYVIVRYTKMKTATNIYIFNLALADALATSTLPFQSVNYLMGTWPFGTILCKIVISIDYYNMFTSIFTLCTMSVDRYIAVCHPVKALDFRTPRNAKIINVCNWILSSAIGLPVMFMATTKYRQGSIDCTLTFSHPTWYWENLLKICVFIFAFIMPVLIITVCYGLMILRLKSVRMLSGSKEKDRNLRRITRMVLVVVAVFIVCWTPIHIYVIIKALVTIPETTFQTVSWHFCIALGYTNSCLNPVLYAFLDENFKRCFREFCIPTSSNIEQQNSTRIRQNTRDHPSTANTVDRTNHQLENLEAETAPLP
Assay: GTPγ[35S] binding assay, antagonism of endorphin
Format: biochemical
Conditions: average Ki; antagonism of endorphin (1 μM) at mu opioid receptor; read-out: Mu functional Ki (GTPγ[35S] binding)
Experimental: Membranes were prepared from cells as described (Bass et al, 1996). […] Stimulation of GTPγ[^35S] binding was then quantified using a Wallac Microbeta and Ki calculations were done using Prism™ by Graphpad.
value_kind: Ki (nM)
The answer is to be given in nM; state only the numeric part.

Some compounds with recorded Ki:
compound: CC(C)CCNCc1ccc(-c2cccc(NS(C)(=O)=O)c2)c(C#N)c1 [8A-03]
output_unit: nM
Ki: 1.16
//
compound: Cc1cc(NS(C)(=O)=O)ccc1-c1ccc(CNCCC(C)C)cc1 [8B-01]
output_unit: nM
Ki: 715

Query string: Given the compound Cc1cc(CNCCC(C)C)ccc1-c1cccc(NS(C)(=O)=O)c1 [8A-02] , what is its reported Ki?
Result string: 1.15

Query string: Given the compound CC(C)CCNCc1ccc(-c2cccc(NS(C)(=O)=O)c2)cc1 [8A-01] , what is its reported Ki?
Result string: 14.6

The measured values listed here are drawn from patent US7615651B2.
